System: MCF-7
experiment: MTT antiproliferative assay, 72 h, with or without estradiol
Format: cell-based, human
experimental setup: Homo sapiens, MCF7; not pretreated with estradiol, 72 hours exposition, MTT; read-out: IC50 [µg/ml] MCF-7 normal
recorded metric: IC50 (µg/mL)
Respond with the bare value in µg/mL.

Observe how each entry below is paired with its result.
>  <compound>
COC(=O)C1CN1S(=O)(=O)c1ccccc1 (stereo not drawn) [Compound C-3251]

>  <IC50, µg/mL>
3.9

$$$$
>  <compound>
CCCCCCc1ccc(S(=O)(=O)N2CC2C(N)=O)cc1 (stereo not drawn) [Compound C-3389]

>  <IC50, µg/mL>
26.7

$$$$
>  <compound>
CCCCCCc1ccc(S(=O)(=O)N2CC2C(=O)NC)cc1 (stereo not drawn) [Compound C-3380]

>  <IC50, µg/mL>
25.5

$$$$
>  <compound>
COC(=O)C1CN1S(=O)(=O)c1cccc2c(N(C)C)cccc12 (stereo not drawn) [Compound C-3326]

>  <IC50, µg/mL>
5.4

$$$$
>  <compound>
CCCCCCc1ccc(S(=O)(=O)N2CC2C(=O)OC)cc1 (stereo not drawn) [Compound C-3287]

>  <IC50, µg/mL>
31.3

$$$$

Shifting focus to the compound that follows.
What value of IC50 has been reported for the following compound? COC(=O)C1CN1S(=O)(=O)c1ccc(F)cc1F (stereo not drawn) [Compound C-3353]
6.2

----------
melting point reference

Observe how each entry below is paired with its result.
>  <compound>
COC(=O)C1CN1S(=O)(=O)c1ccc([N+](=O)[O-])cc1 (stereo not shown)

>  <observed value>
106 to 108 °C

$$$$
>  <compound>
CN(C)c1ccc2c(S(=O)(=O)N3CC3C(N)=O)cccc2c1 (stereo not shown)

>  <observed value>
197 to 199 °C

$$$$
>  <compound>
COC(=O)C1CN1S(=O)(=O)c1ccc2[nH]c(=O)ccc2c1 (stereo not shown)

>  <observed value>
139 to 141 °C

$$$$

What value of melting point has been reported for the following compound? CNc1ccc2cc(S(=O)(=O)N3CC3C(=O)OC)ccc2c1Cl (stereo not shown)
170 to 172 °C

Try the compound NC(=O)C1CN1S(=O)(=O)c1ccc(N)cc1 (stereo not shown)
139 to 141 °C

Try the compound NC(=O)C1CN1S(=O)(=O)c1cccnc1 (stereo not shown)
147 to 149 °C

Try the compound COC(=O)C1CN1S(=O)(=O)c1ccc2oc(=O)ccc2c1 (stereo not shown)
42 to 44 °C

----------
System: HT-1080 (human fibrosarcoma)
experiment: MTT antiproliferative assay, 48 h
Format: cell-based
experimental setup: 48-hour exposition, read-out: Cytotoxicity, IC50, µM HT-1080
Simple rule here: IC50 less than 40 µM is 1, otherwise 0.

A selection of reference data follows.
>  <molecule>
COC(=O)C1CN1S(=O)(=O)c1cccnc1 (stereo not shown)

>  <discrete label>
0

$$$$
>  <molecule>
Cc1ccc(S(=O)(=O)N2CC2C=O)cc1 (stereo not shown)

>  <discrete label>
1

$$$$
>  <molecule>
NC(=O)C1CN1S(=O)(=O)c1ccc(C(F)(F)F)cc1 (stereo not shown)

>  <discrete label>
0

$$$$
>  <molecule>
COC(=O)C1CN1S(=O)(=O)c1ccc(NC(C)=O)cc1 (stereo not shown)

>  <discrete label>
0

$$$$
>  <molecule>
CCCCc1ccc(S(=O)(=O)N2CC2C=O)cc1 (stereo not shown)

>  <discrete label>
1

$$$$
>  <molecule>
COC(=O)[C@H]1CN1S(=O)(=O)c1ccc(C)cc1 (stereo partly shown)

>  <discrete label>
1

$$$$
>  <molecule>
COC(=O)[C@H]1CN1S(=O)(=O)c1cccc2cc(N(C)C)ccc12 (stereo partly shown)

>  <discrete label>
1

$$$$
>  <molecule>
CNc1ccc2cc(S(=O)(=O)N3CC3C(=O)OC)ccc2c1Cl (stereo not shown)

>  <discrete label>
1

$$$$
>  <molecule>
CCCCCCc1ccc(S(=O)(=O)N2CC2C(N)=O)cc1 (stereo not shown)

>  <discrete label>
1

$$$$
>  <molecule>
Cc1ccc(S(=O)(=O)N2CC2C#N)cc1 (stereo not shown)

>  <discrete label>
1

$$$$

Field: next molecule
Is IC50 strictly under 40 µM for the entry COC(=O)C1CN1S(=O)(=O)c1cccc2c(N(C)C)cccc12 (stereo not shown) ?
0

----------
Test system: MDA-MB-231
experiment: MTT antiproliferative assay, 72 h, with or without estradiol
Format: cell-based, human
experimental setup: Homo sapiens, MDA-MB-231; not pretreated with estradiol, 72 hours exposition, MTT; read-out: IC50 [µg/ml] MDA-MB-231 normal
Simple rule here: IC50 less than 20 µg/mL is class 1, otherwise class 0.

>  <compound>
CCCCCCc1ccc(S(=O)(=O)N2CC2C(=O)NC)cc1 (stereo not drawn)

>  <discrete label>
class 0

$$$$
>  <compound>
COC(=O)C1CN1S(=O)(=O)c1ccccc1 (stereo not drawn)

>  <discrete label>
class 0

$$$$
>  <compound>
COC(=O)C1CN1S(=O)(=O)c1ccc(F)cc1F (stereo not drawn)

>  <discrete label>
class 0

$$$$
>  <compound>
COC(=O)C1CN1S(=O)(=O)c1cccc2c(N(C)C)cccc12 (stereo not drawn)

>  <discrete label>
class 1

$$$$
>  <compound>
CCCCCCc1ccc(S(=O)(=O)N2CC2C(=O)OC)cc1 (stereo not drawn)

>  <discrete label>
class 1

$$$$

Is IC50 strictly under 20 µg/mL for the entry CCCCCCc1ccc(S(=O)(=O)N2CC2C(N)=O)cc1 (stereo not drawn) ?
class 0

----------
Test system: HT-1080 (human fibrosarcoma)
experiment: MTT antiproliferative assay, 48 h
Type: cell-based
experimental setup: 48-hour exposition, read-out: Cytotoxicity, IC50, µM HT-1080
Procedure: About 2000-4000 cells per well (depending on line nature) were placed in 96-well plates and after 24 h compounds were added to the wells. Untreated cells were used as a control. The plates were incubated for 48 h, 37° C., 5% CO2. The number of surviving cells was determined using 3-(4,5-dimethylthiazol-2-yl)-2,5-diphenyltetrazolinium bromide (MTT). […] The half-maximal inhibitory concentration (IC50) of each compound was calculated using Graph Pad Prism® 3.0.
recorded metric: IC50 (µM)
Respond with the bare value in µM.

>  <compound>
CC(=O)C1CN1S(=O)(=O)c1ccc(C)cc1 (stereo not shown)

>  <IC50, µM>
7.6

$$$$
>  <compound>
COC(=O)C1CN1S(=O)(=O)c1ccc2[nH]c(=O)ccc2c1 (stereo not shown)

>  <IC50, µM>
16

$$$$
>  <compound>
CCCCc1ccc(S(=O)(=O)N2CC2C(C)=O)cc1 (stereo not shown)

>  <IC50, µM>
4.5

$$$$

What value of IC50 has been reported for the following compound? NC(=O)C1CN1S(=O)(=O)c1cccnc1 (stereo not shown)
31

----------
target desc: PDI A1 (Homo sapiens)
Sequence (P07237 18-508, species assumed): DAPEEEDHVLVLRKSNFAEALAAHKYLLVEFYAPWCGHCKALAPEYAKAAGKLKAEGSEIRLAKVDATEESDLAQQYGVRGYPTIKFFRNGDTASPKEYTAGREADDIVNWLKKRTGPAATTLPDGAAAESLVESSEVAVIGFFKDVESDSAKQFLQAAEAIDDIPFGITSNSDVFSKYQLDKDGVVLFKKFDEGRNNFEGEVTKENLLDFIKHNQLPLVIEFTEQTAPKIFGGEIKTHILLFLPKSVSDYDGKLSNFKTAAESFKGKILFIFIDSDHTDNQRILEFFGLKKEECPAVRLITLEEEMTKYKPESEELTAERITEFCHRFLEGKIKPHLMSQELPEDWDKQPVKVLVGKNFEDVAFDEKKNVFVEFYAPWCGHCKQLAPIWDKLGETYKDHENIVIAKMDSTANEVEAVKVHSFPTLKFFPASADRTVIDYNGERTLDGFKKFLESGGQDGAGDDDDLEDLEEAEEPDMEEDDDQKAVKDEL
experiment: Insulin turbidometric assay, inhibition of PDI A1
experimental setup: insulin reduction, turbidity at 650 nm, 60 min incubation at 37° C.; read-out: Inhibition of PDI A1 (EC 50)
recorded metric: pEC50
Please report pEC50 as the negative decimal logarithm of the molar concentration, giving only the number.

>  <compound>
CCCCCCCCCCCCc1ccc(S(=O)(=O)N2CC2C(=O)OC)cc1 (centres unmarked)

>  <pEC50>
6.10

$$$$
>  <compound>
CNc1ccc2cc(S(=O)(=O)N3CC3C(=O)OC)ccc2c1Cl (centres unmarked)

>  <pEC50>
6.47

$$$$
>  <compound>
COC(=O)[C@@H]1CN1S(=O)(=O)c1cccc2cc(N(C)C)ccc12 (some centres unmarked)

>  <pEC50>
5.22

$$$$
>  <compound>
CCCCCCc1ccc(S(=O)(=O)N2CC2C(=O)OC)cc1 (centres unmarked)

>  <pEC50>
7.30

$$$$
>  <compound>
COC(=O)C1CN1S(=O)(=O)c1ccc2c(C=O)c(N(C)C)ccc2c1 (centres unmarked)

>  <pEC50>
6.22

$$$$

What value of pEC50 has been reported for the following compound? CCCCc1ccc(S(=O)(=O)N2CC2C(=O)N(C)C)cc1 (centres unmarked)
6.30

Try the compound CCCCCCCc1ccc(S(=O)(=O)N2CC2C(=O)OC)cc1 (centres unmarked)
6.40

Try the compound CCCCc1ccc(S(=O)(=O)N2CC2C(C)=O)cc1 (centres unmarked)
6.30

Try the compound Cc1ccc(S(=O)(=O)N2CC2C(=O)O)cc1 (centres unmarked) [Compound C-3612, Lithium 1-tosylaziridine-2-carboxylate]
4.26

Try the compound Cc1ccc(S(=O)(=O)N2CC2C#N)cc1 (centres unmarked)
5.39

Try the compound Cc1ccc(S(=O)(=O)N2CC2C=O)cc1 (centres unmarked)
3.80

Try the compound COC(=O)C1CN1S(=O)(=O)c1ccc(C)cc1 (centres unmarked)
5.30

Try the compound CCCCCCc1ccc(S(=O)(=O)N2CC2C(N)=O)cc1 (centres unmarked)
7.52

Try the compound CC(C)(C)c1ccc(S(=O)(=O)N2CC2C(N)=O)cc1 (centres unmarked)
4.96

Try the compound CCCc1ccc(S(=O)(=O)N2CC2C(=O)OC)cc1 (centres unmarked)
6.10
